- Test system: UO-31
- measurement_notes: Growth inhibition of human UO31 cells at 10 uM
- Type: functional
- experimental_conditions: read-out: GI
measured_property: inhibition of growth at 10 µM (%)
Expressed in %, but write only the number.

What does the record list as inhibition of growth at 10 µM for `O=C1NC(=O)C(=Cc2cn(C(=O)c3ccc(Cl)cc3)c3ccccc23)C(=O)N1` ? 22

Lookup `O=C1NC(=O)C(=Cc2c[nH]c3ccccc23)C(=O)N1` 39

====

- Tested on: UO-31
- measurement_notes: Growth inhibition of human UO31 cells at 10 uM
- Assay type: functional
- experimental_conditions: read-out: GI
# Lookup of reported inhibition of growth at 10 µM keyed by entry
Expressed in %, but write only the number.

Recorded inhibition of growth at 10 µM, per entry:
smiles_data	inhibition of growth at 10 µM (%)
CN1C(=O)C(=Cc2c[nH]c3ccccc23)C(=O)N(C)C1=O	33
CN1C(=O)C(=Cc2cn(Cc3ccccc3)c3ccccc23)C(=O)N(C)C1=O	36
O=C1NC(=O)C(=Cc2cn(Cc3ccccc3)c3ccccc23)C(=O)N1	29
Cc1ccc(S(=O)(=O)n2cc(C=C3C(=O)N(C)C(=O)N(C)C3=O)c3ccccc32)cc1	41
Cc1ccc(S(=O)(=O)n2cc(C=C3C(=O)NC(=O)NC3=O)c3ccccc32)cc1	32
O=C1NC(=O)C(=Cc2cn(C(=O)c3ccccc3)c3ccccc23)C(=O)N1	36

Continue with the next compound.
Query the reported inhibition of growth at 10 µM for UO-31; item: `CN1C(=O)C(=Cc2cn(C(=O)c3ccccc3)c3ccccc23)C(=O)N(C)C1=O` 36
